The origin of these recorded values is PubChem BioAssay (NCI).

- System: HCT-116 colon
- assaySummary: NCI tumour cell line growth inhibition, 48 h
Recorded TGI for the following compounds
State the answer as a number, implicitly in µM.

# compound, numericValue
rows = [
    ("C[n+]1cc2cc(O)c(O)cc2c2ccc3cc(O)c(O)cc3c21", 4.21),
    ("CC1=CC2C3(C)C(C)(C(C)=CP3(=O)c3c(C(C)C)cc(C(C)C)cc3C(C)C)C1P2(=O)c1c(C(C)C)cc(C(C)C)cc1C(C)C (centres undefined)", 4.02),
    ("N#CC1(c2ccc(NC(=O)c3cccnc3NCc3ccncc3)cc2)CCCC1", 32),
    ("CN(C)CCNC(=O)c1cccc2c1Nc1ccccc1S2", 25),
    ("O=[N+]([O-])c1ccc(Cl)c2c([N+](=O)[O-])cccc12", 5.32),
]

Pending compound:
Ask: Which measured TGI value corresponds to Nc1nc2c(c3cnccc13)C(c1ccc(Cl)c(Cl)c1)Cc1cnccc1-2 (centres undefined) ?
Reply: 11.2

====

- System: UACC-62 melanoma
- assaySummary: NCI tumour cell line growth inhibition, 48 h
Each entry below carries its reported TGI.

Some solved entries appear below for comparison.
# compound, targetUnderTest, result
rows = [
    ("Nc1ncnc2c1N=C(c1ccc3c(c1)OCO3)CC(c1ccc(Cl)cc1)N2 (stereo not given)", "UACC-62 melanoma", "> 100 µM"),
    ("COc1cc2ccc3c4cc(OC)c(OC)cc4c[n+](C)c3c2cc1O", "UACC-62 melanoma", "> 100 µM"),
    ("CCOC(=O)/C=C/c1nc(C#N)c(N)o1", "UACC-62 melanoma", "> 100 µM"),
]

Ask: Fill in the blank: the reported TGI of Cc1cccc(NC(=O)c2sc3nc4c(cc3c2N)C(=O)CCC4)c1 is ____.
Reply: > 89.1 µM

Ask: Entry COc1ccc(C(=O)c2cc(OC)c(OC)c(OC)c2OC)cc1O has what TGI?
Reply: > 100 µM

====

- Tested on: OVCAR-5 ovarian
- assaySummary: NCI tumour cell line growth inhibition, 48 h
measurementName: TGI

These solved cases illustrate the format of a correct answer.
# molecule, targetUnderTest, TGI
measured = [
    ("NS(=O)(=O)c1nnc(NC(=O)N(c2ccccc2)c2ccccc2)s1", "OVCAR-5 ovarian", "70.1 µM"),
    ("COc1cc2ccc3c4cc(OC)c(OC)cc4c[n+](C)c3c2cc1O", "OVCAR-5 ovarian", "> 100 µM"),
    ("CC(=O)O[C@H]1C(=O)[C@@]2(C)C([C@H](OC(=O)c3ccccc3)[C@]3(O)C[C@H](OC(=O)[C@H](O)[C@@H](NC(=O)c4ccccc4)c4ccccc4)C(C)=C1C3(C)C)[C@]1(OC(C)=O)CO[C@@H]1C[C@@H]2O (some centres undefined)", "OVCAR-5 ovarian", "> 50 µM"),
    ("COc1cc2nc(-c3ccc(Cl)cc3)cc(OCCCN3CCOCC3)c2cc1OC", "OVCAR-5 ovarian", "> 100 µM"),
]

Ask: Bench note: what TGI did COc1ccc2c(c1)c(-c1nc(-c3c[nH]c4ncccc34)cs1)cn2CCCN1CCOCC1 show?
Reply: 7.91 µM

Ask: Can you look up the measured TGI of COC(=O)CNC(=O)C(CSC(=O)OCC1c2ccccc2-c2ccccc21)NC(=O)CCC(NC(=O)OCC1c2ccccc2-c2ccccc21)C(=O)OC (centres undefined) for me?
Reply: 76.7 µM

Ask: Field request: TGI | item: O=C(/C=C/c1ccc(O)c(O)c1)OCCc1ccc2ccccc2c1
Reply: 29.7 µM

Ask: Which TGI value is on record for FC(F)(F)Oc1cccc(-c2cc(NCCCCCCNc3cc(-c4cccc(OC(F)(F)F)c4)nc4ccc(N5CCCC5)cc34)c3cc(N4CCCC4)ccc3n2)c1 ?
Reply: 3.18 µM

Ask: Value lookup for TGI; key = CSC1=Nc2c(c(C)c(C)n2COC(CO)CO)C2=NC(=O)CN12
Reply: > 100 µM
